Taken from paper PMC11672294.

# Tested on: HT29
# condition: 72 h, relative to DMSO; 10 µM
Where a name gives a salt, the structure may show the parent alone.
recorded-metric: Relative cell viability (%) (%)

1) C[C@]12CCC(=O)C(O)=C1CC[C@@H]1[C@@H]2CC[C@]2(C)C(=O)CC[C@@H]12 [Formestane] | 110.8
2) CCOc1cc2ncc(C#N)c(Nc3ccc(OCc4ccccn4)c(Cl)c3)c2cc1NC(=O)/C=C/CN(C)C [Neratinib (HKI-272)] | 97.84
3) CC(=O)OCC(=O)[C@H]1CC[C@H]2[C@@H]3CCC4=CC(=O)CC[C@]4(C)[C@H]3CC[C@]12C [Deoxycorticosterone acetate] | 81.21
4) C[C@H]1O[C@H](O[C@H]2[C@H](O)[C@@H](O)[C@@H](O[C@H]3[C@H](O)[C@@H](O)C(O)O[C@@H]3CO)O[C@@H]2CO)[C@H](O)[C@@H](O)[C@@H]1N[C@H]1C=C(CO)[C@@H](O)[C@H](O)[C@H]1O (stereo partly shown) [Acarbose] | 103.9
5) CC12CC3CC(C)(C1)CC(N)(C3)C2 [Memantine HCl] | 108.7
6) Cc1ccc2c(Cl)cc(Cl)c(O)c2n1 [Chlorquinaldol] | 41.21
7) O=C(O)CCNC(=O)c1ccccc1 [Betamipron] | 90.303
8) C[C@H](CS)C(=O)N1CCC[C@H]1C(=O)O [Captopril] | 243.5
9) COc1cc(OC)c(/C=C/S(=O)(=O)Cc2ccc(OC)c(NCC(=O)O)c2)c(OC)c1 [Rigosertib (ON-01910)] | 4.206
10) Cc1ccc(-n2nc(C(C)(C)C)cc2NC(=O)NCc2cc(F)ccc2Oc2ccc3c(cnn3CCO)c2)cc1 [Pexmetinib (ARRY-614)] | 47.01
11) C=CC(=O)N1CCC[C@@H](n2nc(-c3ccc(Oc4ccccc4)cc3)c3c(N)ncnc32)C1 [Ibrutinib (PCI-32765)] | 53.4
12) Cc1cc(Nc2cc(CN3CCOCC3)c3nc(C)c(Cc4ccc(Cl)cc4F)n3n2)n[nH]1 [LY2784544] | 102.6
13) COc1cc([C@@H]2c3cc4c(cc3[C@@H](O[C@@H]3O[C@@H]5CO[C@@H](C)O[C@H]5[C@H](O)[C@H]3O)[C@H]3COC(=O)[C@H]23)OCO4)cc(OC)c1O [Etoposide] | 117.9
14) COc1ccc(C(=O)c2ccccc2)c(O)c1 [Oxybenzone] | 118.8
15) CCOC(=O)[C@H](CCc1ccccc1)N[C@H]1CCCN2CCC[C@@H](C(=O)O)N2C1=O [Cilazapril Monohydrate] | 112
16) NC(=O)Cc1cccc(C(=O)c2ccccc2)c1N [Nepafenac] | 77.41
17) CN/C(=N/CCSCc1nc[nH]c1C)NC#N [Cimetidine] | 97.03
18) CCOC(=O)[C@H](CCc1ccccc1)N[C@@H](C)C(=O)N1CCC[C@H]1C(=O)O [Enalapril Maleate] | 98.82
19) CCCOc1ccc(C(=O)OCCN(CC)CC)cc1N [Proparacaine HCl] | 89.41

###

# Tested on: HT29
# condition: 72 h, relative to DMSO; 10 µM
Structures can show the parent of a compound that is named as a salt.
Could you please mark Fulfilled for values of Relative cell viability (%) below 90% and Not fulfilled for values at or above it?

1) CC(C)(C)c1ccc(C(=O)CCCN2CCC(OC(c3ccccc3)c3ccccc3)CC2)cc1 [Ebastine] | Fulfilled
2) CO[C@H]1/C=C/O[C@@]2(C)Oc3c(C)c(O)c4c(O)c(c5c(nc6cc(C)ccn65)c4c3C2=O)NC(=O)/C(C)=C\C=C\[C@H](C)[C@H](O)[C@@H](C)[C@@H](O)[C@@H](C)[C@H](OC(C)=O)[C@@H]1C [Rifaximin] | Not fulfilled
3) O=C(NC1CCN(CCCCC2(C(=O)NCC(F)(F)F)c3ccccc3-c3ccccc32)CC1)c1ccccc1-c1ccc(C(F)(F)F)cc1 [Lomitapide Mesylate] | Fulfilled
4) C[C@H]1C[C@@H]2[C@H]([C@@H](O)C[C@@]3(C)[C@H]2CC[C@]3(O)C(=O)CO)[C@@]2(C)C=CC(=O)C=C12 [Methylprednisolone] | Fulfilled
5) O=C(O)/C=C/c1ccc(Cn2ccnc2)cc1 [Ozagrel HCl] | Not fulfilled
6) CCNC1(C(N)=O)CCN(c2ncnc3c2nc(-c2ccccc2Cl)n3-c2ccc(Cl)cc2)CC1 [Otenabant (CP-945598) HCl] | Fulfilled
7) C[C@@](Cc1ccc(O)c(O)c1)(NN)C(=O)O [Carbidopa] | Not fulfilled
8) Cc1ccc(S(=O)(=O)NC(=O)NN2CC3CCC[C@@H]3C2)cc1 (stereo in doubt) [Gliclazide] | Fulfilled
9) Cc1nc2c([nH]1)-c1ccccc1N(C(=O)c1ccc(NC(=O)c3ccccc3-c3ccccc3)cc1)CC2 [Conivaptan HCl] | Not fulfilled
10) CC(C)OC(=O)[C@H](C)N[P@](=O)(CO[C@H](C)Cn1cnc2c(N)ncnc21)Oc1ccccc1 [Tenofovir Alafenamide (GS-7340)] | Not fulfilled
11) COc1cc(/C=C/C(=O)N2CCN(CC(=O)N3CCCC3)CC2)cc(OC)c1OC [Cinepazide maleate] | Fulfilled
12) CC[C@H](Nc1ncnc2[nH]cnc12)c1nc2cccc(F)c2c(=O)n1-c1ccccc1 [CAL-101 (Idelalisib, GS-1101)] | Not fulfilled
13) O=C1Nc2ccc(Cl)cc2[C@@](C#CC2CC2)(C(F)(F)F)O1 [Efavirenz] | Fulfilled
14) CC[C@H](C)C(=O)O[C@H]1CCC=C2C=C[C@H](C)[C@H](CC[C@@H]3C[C@@H](O)CC(=O)O3)[C@H]21 [Mevastatin] | Fulfilled
15) CC(C)(Oc1ccc(C2CC2(Cl)Cl)cc1)C(=O)O (stereo not drawn) [Ciprofibrate] | Fulfilled
16) CN1CCC(COc2cnc(-c3cccc(Cn4nc(-c5cccc(C#N)c5)ccc4=O)c3)nc2)CC1 [Tepotinib (EMD 1214063)] | Fulfilled
17) O=C(O)c1cn(-c2ccc(F)cc2)c2cc(N3CCNCC3)c(F)cc2c1=O [Sarafloxacin HCl] | Fulfilled
18) COc1cc2c(cc1OC)CC(=O)N(CCCN(C)C[C@H]1Cc3cc(OC)c(OC)cc31)CC2 [Ivabradine HCl] | Not fulfilled
